Origin of values: the NIST ThermoML archive (doi:10.1021/je201102x)

TEST NAME: refractive index (Na D-line) (dimensionless)
ASSAY CONDITIONS: 293.15 K; 101.33 kPa; Liquid; Standard Abbe refractometry
Listed here: items and their measured refractive index.
Response field accepts a number only; no unit should be typed.

>  <COMPOUND>
CCC(C)O (stereo not given)

>  <refractive index>
1.3943

$$$$
>  <COMPOUND>
CC(C)CO

>  <refractive index>
1.3929

$$$$
>  <COMPOUND>
CCC(C)(C)O

>  <refractive index>
1.4016

$$$$
>  <COMPOUND>
CC(=O)O

>  <refractive index>
1.3687

$$$$

Now look at this one.
Lab book: refractive index of CCC(=O)O noted as 1.3835

---

ASSAY CONDITIONS: 303.15 K; 101.33 kPa; Liquid; Vibrating tube method
MEASURE NAME: mass density (kg/m3)
Write the number in kg/m3 without appending the unit.

These recorded examples may help you get a feel for the data.
>  <COMPOUND>
CCC(C)O (stereo not given)

>  <mass density / kg/m3>
798.43

$$$$
>  <COMPOUND>
CC(C)CO

>  <mass density / kg/m3>
794.24

$$$$
>  <COMPOUND>
CC(=O)O

>  <mass density / kg/m3>
1037.99

$$$$
>  <COMPOUND>
CCC(C)(C)O

>  <mass density / kg/m3>
799.75

$$$$

Lab book: mass density of CCC(=O)O noted as 982.75

---

ASSAY CONDITIONS: 323.15 K; 101.33 kPa; Liquid; Vibrating tube method
Listed here: items and their measured mass density.
Write the number in kg/m3 without appending the unit.

>  <COMPOUND>
CC(C)CO [2-methyl-1-propanol]

>  <UNIT OF MEASURE>
kg/m3

>  <RECORDED MEASUREMENT>
778.09

$$$$

Lab book: mass density of CC(=O)O [acetic acid] noted as 1015.36

Lab book: mass density of CCC(C)(C)O [2-methylbutan-2-ol] noted as 780.46

Lab book: mass density of CCC(=O)O [propanoic acid] noted as 961.16

Lab book: mass density of CCC(C)O (stereo not given) [butan-2-ol] noted as 780.65

---

ASSAY CONDITIONS: 293.15 K; 101.33 kPa; Liquid; Vibrating tube method
Listed here: items and their measured mass density.
Write the number in kg/m3 without appending the unit.

These recorded examples may help you get a feel for the data.
>  <COMPOUND>
CC(=O)O

>  <UNIT OF MEASURE>
kg/m3

>  <RECORDED MEASUREMENT>
1049.31

$$$$
>  <COMPOUND>
CCC(=O)O

>  <UNIT OF MEASURE>
kg/m3

>  <RECORDED MEASUREMENT>
993.56

$$$$
>  <COMPOUND>
CC(C)CO

>  <UNIT OF MEASURE>
kg/m3

>  <RECORDED MEASUREMENT>
801.99

$$$$
>  <COMPOUND>
CCC(C)O (stereo not given)

>  <UNIT OF MEASURE>
kg/m3

>  <RECORDED MEASUREMENT>
806.75

$$$$

Now look at this one.
Lab book: mass density of CCC(C)(C)O noted as 808.98
